The origin of these recorded values is ChEMBL document CHEMBL5104197.

- Test system: Mycobacterium tuberculosis
- Measurement protocol: microbe, parasite or virus in culture
- Measurement conditions: H37Rv, 168 h
Each entry below lists one item and its recorded MIC90 value.
Value expressed in µg/mL; do not type the unit.

O=c1oc2cc(O)ccc2c2oc3ccc(O)c(CN4CC[C@@H](F)C4)c3c12 :: 0.5
O=c1oc2cc(O)ccc2c2oc3ccc4c(c3c12)CN(C1CC1)CO4 :: 0.125
O=c1oc2cc(O)ccc2c2oc3ccc(O)c(CN4CCC5(CC4)CC5)c3c12 :: 0.25
O=c1oc2cc(O)ccc2c2oc3ccc4c(c3c12)CN(CC1CC1)CO4 :: 0.0625

Prompt line: Please report the recorded MIC90 for "COc1ccc2c(c1)oc(=O)c1c2oc2ccc(O)c(CN3CCC(C)(C)CC3)c21" .
Response line: 8

* * *

Each record here notes measured half-life.
- Measurement protocol: Metabolic stability in human liver microsomes assessed as half-life measured after 60 mins by LC-MS/MS analysis
- Format: ADME, Microsome
Report the value in h with no unit label.

O=c1oc2cc(O)ccc2c2oc3ccc(O)c(CN4CCC(F)CC4)c3c12 :: 0.992

In the following, a different molecule is considered.
Prompt line: Name the reported half-life value associated with the molecule "O=c1oc2cc(O)ccc2c2oc3ccc(O)c(CN4CCCCC4)c3c12"
Response line: 2

* * *

- Measurement protocol: Selectivity index, ratio of CC50 for African green monkey Vero cells to MIC90 for Mycobacterium tuberculosis H37Rv
- Assay type: toxicity
- Measurement conditions: read-out: Selectivity Index
Quantity kind: selectivity ratio
The answer should be a number; do not append a unit.

Prompt line: Recorded selectivity ratio for "O=c1oc2cc(O)ccc2c2oc3ccc4c(c3c12)CN(C1CCCC1)CO4" , please?
Response line: 32
